target: Fyn (UniProt P06241); assay: phosphorylation enrichment, bacterial display (enrichment ratio); higher = better substrate or ligand; peptides without Tyr show the background
Sequence (P06241 whole entry, looked up): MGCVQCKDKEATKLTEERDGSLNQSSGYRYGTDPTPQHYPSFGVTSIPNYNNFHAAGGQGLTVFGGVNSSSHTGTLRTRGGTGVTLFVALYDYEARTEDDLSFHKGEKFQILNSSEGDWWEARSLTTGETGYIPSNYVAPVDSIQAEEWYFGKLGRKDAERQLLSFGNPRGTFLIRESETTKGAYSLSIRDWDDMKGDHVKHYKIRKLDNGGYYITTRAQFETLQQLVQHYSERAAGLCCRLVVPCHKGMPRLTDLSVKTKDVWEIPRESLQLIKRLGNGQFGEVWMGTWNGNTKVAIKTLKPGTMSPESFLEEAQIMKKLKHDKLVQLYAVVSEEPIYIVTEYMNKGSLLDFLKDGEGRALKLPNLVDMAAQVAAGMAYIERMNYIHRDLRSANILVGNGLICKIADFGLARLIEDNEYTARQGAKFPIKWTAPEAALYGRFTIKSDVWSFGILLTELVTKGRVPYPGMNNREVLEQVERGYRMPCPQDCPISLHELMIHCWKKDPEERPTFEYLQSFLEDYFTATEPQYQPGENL
Entries and their phosphorylation enrichment values follow.
propertyName: phosphorylation enrichment

INSERT INTO results (chain, recordedmeasurement) VALUES
  ('ELSDGYWVVSN [TPP1_Y459_A454E]', 0.507),
  ('TFTVSYLPDMS [FLNC_Y1602_YF]', 0.495),
  ('AVHPGYGFLSE [PCCA_Y143]', 0.487),
  ('SLEKGYELPDG [ACTC1_Y242_S241G]', 0.49);

* * *

target: Jak2 (UniProt O60674); assay: phosphorylation enrichment, bacterial display (enrichment ratio); higher = better substrate or ligand; peptides without Tyr show the background
Sequence (O60674 whole entry, looked up): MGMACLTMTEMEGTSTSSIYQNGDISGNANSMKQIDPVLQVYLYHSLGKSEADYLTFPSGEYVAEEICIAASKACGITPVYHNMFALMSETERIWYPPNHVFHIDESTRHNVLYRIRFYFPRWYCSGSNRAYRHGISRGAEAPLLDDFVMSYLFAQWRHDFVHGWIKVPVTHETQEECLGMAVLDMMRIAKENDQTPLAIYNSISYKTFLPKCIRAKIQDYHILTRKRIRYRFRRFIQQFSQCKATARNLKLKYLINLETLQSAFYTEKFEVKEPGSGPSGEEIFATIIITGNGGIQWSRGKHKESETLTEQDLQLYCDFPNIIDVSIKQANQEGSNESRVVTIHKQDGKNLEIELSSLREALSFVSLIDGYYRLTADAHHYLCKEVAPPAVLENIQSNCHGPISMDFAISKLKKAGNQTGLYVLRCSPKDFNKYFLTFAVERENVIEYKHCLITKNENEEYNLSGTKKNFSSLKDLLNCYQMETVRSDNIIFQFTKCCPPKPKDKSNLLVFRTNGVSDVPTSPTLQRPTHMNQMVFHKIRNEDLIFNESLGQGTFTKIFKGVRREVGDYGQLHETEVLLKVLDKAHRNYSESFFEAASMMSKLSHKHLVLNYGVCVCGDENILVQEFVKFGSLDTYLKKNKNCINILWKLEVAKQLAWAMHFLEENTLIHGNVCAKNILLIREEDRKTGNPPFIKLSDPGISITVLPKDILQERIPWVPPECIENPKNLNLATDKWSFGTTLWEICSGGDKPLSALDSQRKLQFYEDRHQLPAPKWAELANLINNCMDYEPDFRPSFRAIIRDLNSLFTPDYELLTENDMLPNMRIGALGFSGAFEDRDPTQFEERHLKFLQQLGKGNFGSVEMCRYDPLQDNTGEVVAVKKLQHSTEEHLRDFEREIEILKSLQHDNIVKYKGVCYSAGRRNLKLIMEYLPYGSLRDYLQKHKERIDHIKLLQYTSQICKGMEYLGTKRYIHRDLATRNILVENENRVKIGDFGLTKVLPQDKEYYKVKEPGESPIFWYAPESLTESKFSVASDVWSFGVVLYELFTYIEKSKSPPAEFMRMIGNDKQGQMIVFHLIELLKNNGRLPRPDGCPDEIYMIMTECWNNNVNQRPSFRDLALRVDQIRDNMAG
propertyName: phosphorylation enrichment

INSERT INTO measurements (chain, recordedmeasurement) VALUES
  ('PLQKTYNHNVL [SLC4A1_Y553_Y555H]', 0.892),
  ('IVWDSYTTNKV [GNB3_Y85]', 0.895),
  ('GGFTCYCDGKK [PROS1_Y266_YF]', 0.998),
  ('EIPTQYEAMAS [GFAP_Y242_R239P]', 0.802),
  ('IFSGIYFKPES [L2HGDH_Y102_H98Y_YF]', 6.32),
  ('MCDSHYLESRS [CLK1_Y56]', 0.618),
  ('FRPPYYHRNCM [HGD_Y334]', 0.89);

* * *

Entries and their SH2 binding enrichment values follow.
target: Grb2 SH2 (UniProt P62993); assay: SH2 binding enrichment of the phosphorylated peptide, bacterial display (enrichment ratio); higher = better substrate or ligand; peptides without Tyr show the background
Sequence (P62993 whole entry, looked up): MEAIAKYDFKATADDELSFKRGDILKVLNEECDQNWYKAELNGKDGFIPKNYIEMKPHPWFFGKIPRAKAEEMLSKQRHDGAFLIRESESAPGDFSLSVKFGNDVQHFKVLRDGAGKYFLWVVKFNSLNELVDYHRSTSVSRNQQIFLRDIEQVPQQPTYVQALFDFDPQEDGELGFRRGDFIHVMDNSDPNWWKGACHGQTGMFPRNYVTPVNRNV
propertyName: SH2 binding enrichment

INSERT INTO measurements (chain, recordedmeasurement) VALUES
  ('IGEGTYGQVYK [CDK13_Y716]', 0.667),
  ('VSKGGYFSVNL [C3orf33_Y164]', 0.872),
  ('KILGRYFETGS [PAX2_Y72_YF]', 0.9),
  ('GDEVEYMLVSF [GCLC_Y53]', 0.821),
  ('LRFKQYLRNPP [SHC1_Y315]', 0.786),
  ('YSSLGYPPPEG [ZSWIM4_Y87]', 1.04),
  ('PNRILYGDFQQ [MYH7_Y715_R719Q]', 0.823),
  ('DDSNPYINVKL [MTHFD1_Y52_L51P]', 1.32),
  ('ADELEYSRTGL [MMUT_Y287_G284E]', 0.747);

* * *

biological target: Fyn (UniProt P06241); assay: phosphorylation enrichment, bacterial display (enrichment ratio); higher = better substrate or ligand; peptides without Tyr show the background
Hi, to clarify the labels: condition met covers phosphorylation enrichment from 0.5 upward, condition not met covers anything below 0.5.

INSERT INTO measurements (chain, classification) VALUES
  ('SISYDYCRVPM [BST2_Y8_T4I]', 'condition met'),
  ('YRGYSYDDIPD [TMEM230_Y112]', 'condition not met'),
  ('GRFSGYKSKHG [EPHA3_Y570_C568S]', 'condition not met'),
  ('YENGEYIIRQG [PRKG1_Y247]', 'condition not met'),
  ('LTERGYSFTTK [ACTG1_Y198_T203K]', 'condition met'),
  ('TFRPPYFHRNC [HGD_Y333_YF]', 'condition not met'),
  ('PYRQWYESHYA [RPS8_Y113]', 'condition met'),
  ('NFDRIYIYHLR [MYOF_Y1137_V1136I]', 'condition met'),
  ('EQPNPYMVLDI [ROCK2_Y1197_S1194P]', 'condition met'),
  ('YQLPYYNTVPS [BMPR1A_Y458_M460T]', 'condition met'),
  ('FADIAYNFHHG [PAH_Y166_R169H_YF]', 'condition met'),
  ('NVADHYRVFKP [ATP6V0D2_Y271_G272R_YF]', 'condition not met'),
  ('CTTFHYNYMCN [TP53_Y234_I232F]', 'condition met'),
  ('RLGNQYVNVMN [SLC3A1_Y461]', 'condition not met'),
  ('RIDPDYVGRVR [IGSF9_Y81]', 'condition not met'),
  ('EPNSRYTFKLE [USH2A_Y3745_YF]', 'condition not met'),
  ('EVGRVYLFLQP [ITGA2B_Y360]', 'condition not met'),
  ('IGEGTYGQVYK [CDK13_Y716]', 'condition met'),
  ('GCKNHYDKDKP [THAP1_Y14_R13H]', 'condition not met'),
  ('SHSMRYFYTAV [HLA-C_Y31_D33Y]', 'condition met'),
  ('ILGRTYFVNHE [NEDD4_Y627_YF]', 'condition not met'),
  ('NFFDTYIKTCL [IQGAP2_Y1445_YF]', 'condition not met'),
  ('HGEAYYSEVKA [PAK5_Y182_P187A]', 'condition met'),
  ('PVDVAYRHGYF [PLEC_Y2967_R2969H]', 'condition met'),
  ('IGGHAYGDQFR [IDH1_Y135_R132G_YF]', 'condition not met'),
  ('WCKPPYFSCAV [MMS22L_Y28]', 'condition not met'),
  ('NFAKMYCNPDA [KNL1_Y489_YF]', 'condition met'),
  ('SGDVQYRSSVR [FREM2_Y2158_T2153S]', 'condition not met'),
  ('IITVHYVLEES [RYR2_Y4559_A4556T]', 'condition met'),
  ('DRIVNYSRASV [ATP7A_Y1459_I1464V]', 'condition not met'),
  ('ALAAPYVLYPG [CEFIP_Y1332]', 'condition met'),
  ('KELANYFKLHH [AK7_Y390_YF]', 'condition met'),
  ('PGPQSYPTVTG [PAX5_Y299_I301T]', 'condition met'),
  ('LEGEEYRMSGE [KRT3_Y511]', 'condition met'),
  ('SAASGYSDVTD [DTX2_Y425_T421A]', 'condition not met'),
  ('SLIDGYFRLTE [JAK2_Y372_A377E_YF]', 'condition not met'),
  ('QRRLVYYEGGA [RYR1_Y245]', 'condition not met'),
  ('RDMNAYIRPSP [MMAA_Y207]', 'condition met'),
  ('IGHGSYAKVLL [PRKCZ_Y263_R260H]', 'condition met'),
  ('QGCSIYKDYYR [PLA2G2D_Y82]', 'condition met'),
  ('LITSVYGCSRQ [TMPRSS6_Y290]', 'condition met'),
  ('LNNIIYRVERA [CUX2_Y1470]', 'condition met'),
  ('DGTGHYLCNAC [GATA5_Y208]', 'condition not met'),
  ('LRFDVYGGENE [STOX1_Y610_E608D_YF]', 'condition met');

* * *

Entries and their phosphorylation enrichment values follow.
target: FGFR1 (UniProt P11362); assay: phosphorylation enrichment, bacterial display (enrichment ratio); higher = better substrate or ligand; peptides without Tyr show the background
Sequence (P11362 whole entry, looked up): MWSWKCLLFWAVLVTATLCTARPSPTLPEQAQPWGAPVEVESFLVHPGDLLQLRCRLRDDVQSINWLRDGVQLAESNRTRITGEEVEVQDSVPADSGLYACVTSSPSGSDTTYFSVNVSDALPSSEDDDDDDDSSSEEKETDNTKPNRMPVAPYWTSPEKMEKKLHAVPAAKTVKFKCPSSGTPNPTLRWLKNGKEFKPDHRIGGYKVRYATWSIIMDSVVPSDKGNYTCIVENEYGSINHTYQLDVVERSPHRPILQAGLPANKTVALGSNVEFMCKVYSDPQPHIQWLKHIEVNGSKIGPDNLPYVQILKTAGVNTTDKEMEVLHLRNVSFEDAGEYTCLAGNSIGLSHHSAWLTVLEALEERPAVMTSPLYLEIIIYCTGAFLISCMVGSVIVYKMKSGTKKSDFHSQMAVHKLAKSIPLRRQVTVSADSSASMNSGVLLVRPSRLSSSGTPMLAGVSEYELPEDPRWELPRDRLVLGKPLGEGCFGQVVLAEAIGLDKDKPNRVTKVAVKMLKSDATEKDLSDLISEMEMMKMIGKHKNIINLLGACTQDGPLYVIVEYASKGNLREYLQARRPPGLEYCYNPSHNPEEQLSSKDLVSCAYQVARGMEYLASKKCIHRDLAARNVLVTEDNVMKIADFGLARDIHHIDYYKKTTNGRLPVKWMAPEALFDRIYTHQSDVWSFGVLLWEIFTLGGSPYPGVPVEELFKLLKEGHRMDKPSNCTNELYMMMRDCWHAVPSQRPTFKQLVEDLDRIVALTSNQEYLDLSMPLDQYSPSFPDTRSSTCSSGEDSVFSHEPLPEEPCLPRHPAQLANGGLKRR
propertyName: phosphorylation enrichment

INSERT INTO measurements (chain, measurementtarget, propertyname, recordedmeasurement) VALUES
  ('QDTSRYTVCNL [BIRC3_Y245_S248C]', 'FGFR1 (UniProt P11362)', 'phosphorylation enrichment', 0.418),
  ('LSGVIYVILWK [PMP22_Y153_R157W]', 'FGFR1 (UniProt P11362)', 'phosphorylation enrichment', 0.358),
  ('FNVLQYVVPKV [EIF3A_Y382_E386K]', 'FGFR1 (UniProt P11362)', 'phosphorylation enrichment', 1.1),
  ('FSGKAYADEER [CRIM1_Y826]', 'FGFR1 (UniProt P11362)', 'phosphorylation enrichment', 0.694),
  ('ADELEYSRTGL [MMUT_Y287_G284E]', 'FGFR1 (UniProt P11362)', 'phosphorylation enrichment', 0.402),
  ('REENGYNTYAS [FGF10_Y161_I156R]', 'FGFR1 (UniProt P11362)', 'phosphorylation enrichment', 0.761),
  ('SPPPAFTPMSG [ERBB4_Y1056_Y1056F]', 'FGFR1 (UniProt P11362)', 'phosphorylation enrichment', 0.402),
  ('GASWRYGSGVS [NEU1_Y242]', 'FGFR1 (UniProt P11362)', 'phosphorylation enrichment', 0.531);

* * *

biological target: EPHB2 (UniProt P29323); test: phosphorylation enrichment, bacterial display (enrichment ratio); higher = better substrate or ligand; peptides without Tyr show the background
Sequence (P29323 whole entry, looked up): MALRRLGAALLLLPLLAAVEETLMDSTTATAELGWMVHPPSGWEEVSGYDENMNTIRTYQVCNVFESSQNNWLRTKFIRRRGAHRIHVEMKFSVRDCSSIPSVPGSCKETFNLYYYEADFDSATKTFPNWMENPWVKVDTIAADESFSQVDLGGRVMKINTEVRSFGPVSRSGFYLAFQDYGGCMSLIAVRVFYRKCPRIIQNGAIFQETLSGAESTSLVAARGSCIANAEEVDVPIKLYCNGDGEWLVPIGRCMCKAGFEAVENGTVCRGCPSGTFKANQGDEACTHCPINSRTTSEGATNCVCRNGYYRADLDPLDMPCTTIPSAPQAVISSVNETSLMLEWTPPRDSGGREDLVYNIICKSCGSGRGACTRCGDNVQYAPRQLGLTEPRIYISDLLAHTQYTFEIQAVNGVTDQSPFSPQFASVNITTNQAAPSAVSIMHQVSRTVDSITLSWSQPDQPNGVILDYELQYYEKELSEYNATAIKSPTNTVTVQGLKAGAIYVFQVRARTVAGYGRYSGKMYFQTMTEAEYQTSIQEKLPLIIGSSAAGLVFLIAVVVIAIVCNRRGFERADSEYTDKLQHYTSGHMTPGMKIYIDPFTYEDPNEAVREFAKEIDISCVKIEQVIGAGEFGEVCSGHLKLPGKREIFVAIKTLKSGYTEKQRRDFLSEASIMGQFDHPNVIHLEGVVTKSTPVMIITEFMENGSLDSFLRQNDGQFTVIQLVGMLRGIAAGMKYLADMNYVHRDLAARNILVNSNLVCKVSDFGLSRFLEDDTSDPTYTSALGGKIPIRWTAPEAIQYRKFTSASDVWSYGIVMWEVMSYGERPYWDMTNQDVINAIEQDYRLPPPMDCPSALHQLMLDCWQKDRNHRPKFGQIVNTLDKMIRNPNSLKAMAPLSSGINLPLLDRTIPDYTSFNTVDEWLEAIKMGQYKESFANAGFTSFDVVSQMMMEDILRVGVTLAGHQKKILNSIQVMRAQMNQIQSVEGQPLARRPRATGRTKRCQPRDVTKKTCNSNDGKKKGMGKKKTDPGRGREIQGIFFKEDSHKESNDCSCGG
Entries and their phosphorylation enrichment values follow.
propertyName: phosphorylation enrichment

INSERT INTO measurements (chain, recordedmeasurement) VALUES
  ('KPEKTYGLRNE [CEP43_Y267_K271N]', 0.362),
  ('MGSYNYLGFAR [SPTLC2_Y178]', 0.949),
  ('EDKFMYFEFPQ [PTEN_Y240]', 0.67),
  ('PGPQSYPTVTG [PAX5_Y299_I301T]', 0.725),
  ('SNSAAYSGSVA [PDLIM5_Y382_T381A]', 0.393),
  ('GFRPVYSEDEQ [CHST6_Y362_YF]', 0.699),
  ('INMKEYCKKDY [NTN1_Y490_K489E]', 0.462),
  ('GRFSGYKSKHG [EPHA3_Y570_C568S]', 0.256);
